Provide the recorded pIC50 for the entries that follow.
# Target: JAK1 kinase activity on STAT3 in TF1 cells (Homo sapiens, UniProt P23458)
# Sequence (P23458 whole entry): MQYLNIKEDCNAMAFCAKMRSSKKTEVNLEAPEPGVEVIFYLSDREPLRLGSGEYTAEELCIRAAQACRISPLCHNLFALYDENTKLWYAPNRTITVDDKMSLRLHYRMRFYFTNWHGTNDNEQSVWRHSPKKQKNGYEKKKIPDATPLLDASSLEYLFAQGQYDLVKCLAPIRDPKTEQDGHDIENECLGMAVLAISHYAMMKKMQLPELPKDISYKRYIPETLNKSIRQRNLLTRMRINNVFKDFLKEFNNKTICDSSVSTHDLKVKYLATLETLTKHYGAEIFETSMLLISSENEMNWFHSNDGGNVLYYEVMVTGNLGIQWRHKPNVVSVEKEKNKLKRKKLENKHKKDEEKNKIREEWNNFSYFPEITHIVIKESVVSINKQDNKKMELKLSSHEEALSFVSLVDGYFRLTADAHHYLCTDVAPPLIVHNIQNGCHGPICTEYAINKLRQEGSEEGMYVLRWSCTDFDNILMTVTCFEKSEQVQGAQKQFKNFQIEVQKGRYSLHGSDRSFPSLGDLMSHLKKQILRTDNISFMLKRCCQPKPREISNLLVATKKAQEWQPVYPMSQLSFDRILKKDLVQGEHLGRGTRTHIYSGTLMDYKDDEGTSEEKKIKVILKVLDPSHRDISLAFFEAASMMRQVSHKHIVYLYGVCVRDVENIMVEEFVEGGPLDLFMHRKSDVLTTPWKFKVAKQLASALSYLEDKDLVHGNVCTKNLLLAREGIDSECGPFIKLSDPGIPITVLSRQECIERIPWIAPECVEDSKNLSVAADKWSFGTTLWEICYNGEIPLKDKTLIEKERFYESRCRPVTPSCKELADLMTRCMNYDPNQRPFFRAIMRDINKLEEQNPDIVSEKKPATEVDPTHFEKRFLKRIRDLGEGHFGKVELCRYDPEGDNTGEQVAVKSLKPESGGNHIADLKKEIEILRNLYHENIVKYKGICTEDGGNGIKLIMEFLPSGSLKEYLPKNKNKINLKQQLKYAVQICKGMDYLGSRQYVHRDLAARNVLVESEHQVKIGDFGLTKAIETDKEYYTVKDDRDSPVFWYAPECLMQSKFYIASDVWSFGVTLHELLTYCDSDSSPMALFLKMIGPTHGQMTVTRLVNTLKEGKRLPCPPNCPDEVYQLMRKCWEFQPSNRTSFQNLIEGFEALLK
# Test method notes: pSTAT3 cell assay (MSD; TF1 cells, 30 ng/mL IL-6 stimulation)
# Stated conditions: 30 ng/mL IL-6, 15 minutes
pIC50: −log10 of the molar value. Where a name gives a salt, the structure may show the parent alone.

// recorded pIC50 for C[C@@H]1CN(c2nc(-c3cc[nH]n3)cn3nccc23)C(=O)[C@]1(C#N)C1CC1 [Example 232, trifluoroacetate] : 5.30 to 6.00

// recorded pIC50 for C[C@@H]1CN(c2ccnn3cc(-c4ccnc(C#N)c4)cc23)C(=O)[C@]1(C#N)C1CC1 : 5.00 to 5.30

// recorded pIC50 for C[C@@H]1CN(c2nc(-c3cnn([C@H]4C[C@@](F)(C#N)C4)c3)cn3ncc(F)c23)C(=O)[C@]1(C#N)C1CC1 : 5.00 to 5.30

// recorded pIC50 for C[C@@H]1CN(c2ccnn3cc(-c4ccc(C(F)(F)F)nc4)cc23)C(=O)[C@]1(C#N)C1CC1 : 5.00 to 5.30

// recorded pIC50 for C[C@@H]1CN(c2ccnn3cc(-c4cn(C5COC5)nc4F)cc23)C(=O)[C@]1(C#N)C1CC1 : 5.30 to 6.00

// recorded pIC50 for C[C@@H]1CN(c2ccnn3cc(-c4nc5cnccc5s4)cc23)C(=O)[C@]1(C#N)C1CC1 [Example 102, trifluoroacetate] : 5.00 to 5.30

// recorded pIC50 for COc1cc(-c2cc3c(N4CC[C@@](C#N)(C5CC5)C4=O)ccnc3[nH]2)ccn1 : 6.00 to 7.00

// recorded pIC50 for C[C@@H]1CN(c2nc(-c3cnn(-c4ccncc4)c3)cn3nccc23)C(=O)[C@]1(C#N)C1CC1 : 6.00 to 7.00

// recorded pIC50 for C[C@@H]1CN(c2nc(-c3cnn(C4CCCCC4)c3)cn3ncc(F)c23)C(=O)[C@]1(C#N)C1CC1 : 6.00 to 7.00

// recorded pIC50 for Cc1nc(-c2cn3nccc3c(N3C[C@@H](C)[C@@](C#N)(C4CC4)C3=O)n2)cs1 : 5.30 to 6.00

// recorded pIC50 for C[C@@H]1CN(c2ccnn3cc(-c4ccnc(F)c4)cc23)C(=O)[C@]1(C#N)C1CC1 : 5.30 to 6.00

// recorded pIC50 for CC(=O)Nc1cc(-c2cc3c(N4C[C@@H](C)[C@@](C#N)(C5CC5)C4=O)ccnn3c2)ccn1 : 6.00 to 7.00

// recorded pIC50 for C[C@@H]1CN(c2ccnn3cc(-c4ccc(C(=O)N(C)C)cn4)cc23)C(=O)[C@]1(C#N)C1CC1 [Example 124, trifluoroacetate] : 5.00 to 5.30

// recorded pIC50 for COc1ccc(-c2cc3c(N4C[C@@H](C)[C@@](C#N)(C5CC5)C4=O)ccnn3c2)nc1 [Example 145, trifluoroacetate] : 5.00 to 5.30

// recorded pIC50 for Cn1cc(-c2cc3c(N4CC[C@@](C#N)(C5CC5)C4=O)ccnn3c2)c(F)n1 : 5.30 to 6.00

// recorded pIC50 for Cc1c(-c2cc3c(N4C[C@@H](C)[C@@](C#N)(C5CC5)C4=O)ccnn3c2)cnn1C : < 5.00

// recorded pIC50 for Cc1ccn(-c2cc3c(N4C[C@@H](C)[C@@](C#N)(C5CC5)C4=O)ccnn3c2)n1 : < 5.00

// recorded pIC50 for C[C@@H]1CN(c2cc(-c3cnn(C(F)F)c3)cc3ncsc23)C(=O)[C@]1(C#N)C1CC1 : 6.00 to 7.00

// recorded pIC50 for Cc1cc(-c2cc3c(N4CC[C@@](C#N)(C5CC5)C4=O)ccnn3c2)on1 : < 5.00

// recorded pIC50 for Cc1nc(C)c(-c2cn3nccc3c(N3C[C@@H](C)[C@@](C#N)(C4CC4)C3=O)n2)s1 : 5.30 to 6.00

// recorded pIC50 for C[C@@H]1CN(c2nc(-c3cnc4c(c3)CCC(=O)N4)cn3nccc23)C(=O)[C@]1(C#N)C1CC1 : 5.30 to 6.00

// recorded pIC50 for Cc1cc(-n2nc(N3C[C@@H](C)[C@@](C#N)(C4CC4)C3=O)c3ccncc32)ccn1 : 5.30 to 6.00

// recorded pIC50 for Cc1c(-c2cn3nccc3c(N3C[C@@H](C)[C@@](C#N)(C4CC4)C3=O)n2)cnn1C : 5.30 to 6.00
